experiment: t1/2 of liver particle metabolism, rat; format: in vitro ADME; settings: liver particle (liver microsomes)
quantity.measured: half-life (min)

{"compound": "CC(c1cccc(-c2ncc(OCC3CCN(C)CC3)cn2)c1)n1cc(-c2cc(C#N)ccn2)cc(F)c1=O (single isomer, unassigned)", "unit.symbol": "min", "measured.value": 36.5}

###

pIC50: −log10 of the molar value.
Assay system c-MET enzyme (Homo sapiens, UniProt P08581); read-out recorded as pIC50.

{"compound": "Cc1cc(-c2cc(F)c(=O)n(C(C)c3cccc(-c4ncc(OCC5CCN(C)CC5)cn4)c3)c2)sn1 (stereo not shown)", "pIC50": 8.03}
{"compound": "Cc1cc(-c2cc(F)c(=O)n([C@H](C)c3cccc(-c4ncc(OCC5CCN(C)CC5)cn4)c3)c2)on1 (single isomer, unassigned)", "pIC50": 8.42}
{"compound": "CN1CCC(COc2cnc(-c3cccc(Cn4cc(-c5cc(C#N)ccn5)ccc4=O)c3)nc2)CC1", "pIC50": 8.36}
{"compound": "CN1CCC(COc2cnc(-c3cccc(Cn4cc(-c5cnn(C)c5)ccc4=O)c3)nc2)CC1", "pIC50": 7.16}
